These measurements were taken from patent US10573426B2.

Test system: rats
method description: 4 hour inhalation LC50 in rats
Format: in vivo
assay metric: 4 hour inhalation lethal concentration at 50% (LC-50)

>  <compound>
N#CC(F)(OC(F)(F)F)C(F)(F)F (stereo not shown)

>  <study system>
rats

>  <recorded measurement>
about 15,000 ppm

$$$$
>  <compound>
N#CC(F)(F)C(F)(F)F [CF3CF2CN]

>  <study system>
rats

>  <recorded measurement>
2731 ppm

$$$$
>  <compound>
N#CC(F)(C(F)(F)F)C(F)(F)F [heptafluoroisobutyronitrile, Heptafluoroisobutyronitrile]

>  <study system>
rats

>  <recorded measurement>
about 15,000 ppm

$$$$
